molecular target: ferroportin (Homo sapiens, UniProt Q9NP59); assay: FPN activity assay: ferroportin-GFP internalization/degradation in HEK293 cells; format: cell-based; set-up: expressed in transfected cells; conditions: ferroportin-GFP HEK293 cells, at least 18 hours; read-out: FPN IC50
Positions of bridges follow the written chain, without caps; N, C: chain ends. Non-standard residues stand in square brackets, D forms with d. Residues, ends and D or L forms follow the SMILES beside them. Groups on a side chain read outwards from the residue. *: point of attachment. Dip = N[C@H](C(=O)O)C(c1ccccc1)c1ccccc1; Palmitoyl = CCCCCCCCCCCCCCCC(=O)*; β3hF = N[C@H](CC(=O)O)Cc1ccccc1; Isovaleryl = CC(C)CC(=O)*; Ahx = NCCCCCC(=O)O
endpoint.label: DC50

compound	subject.of.test	DC50
CCCCCCCCCCCCCCCC(=O)NCCCCCC(=O)NCCCC[C@H](NC(=O)C[C@H](Cc1ccccc1)NC(=O)[C@H]1CSSC[C@H](NC(=O)CC(C)C)C(=O)N[C@@H]([C@@H](C)O)C(=O)N[C@@H](Cc2c[nH]cn2)C(=O)N[C@@H](C(c2ccccc2)c2ccccc2)C(=O)N2CCC[C@H]2C(=O)N[C@@H](C)C(=O)N[C@@H]([C@@H](C)CC)C(=O)N1)C(=O)N[C@H](CCCCN)C(N)=O [compound 106] (Isovaleryl-CTH[Dip]PAI[dC][β3hF]K([Ahx-Palmitoyl])[dK]-NH2; disulfide 1-8)	ferroportin (Homo sapiens, UniProt Q9NP59)	100 to 500 nM

Please turn your attention to the following entry.
Item under review: CCCCCCCCCCCCCCCC(=O)NCCCCCC(=O)NCCCC[C@H](NC(=O)C[C@H](Cc1ccccc1)NC(=O)[C@@H](CCCCN)NC(=O)[C@@H](NC(=O)[C@H](C)NC(=O)[C@@H]1CSSC[C@H](NC(=O)[C@H](CCC(=O)O)NC(=O)CC(C)C)C(=O)N[C@@H](Cc2c[nH]cn2)C(=O)N[C@@H](C(c2ccccc2)c2ccccc2)C(=O)N1)[C@@H](C)CC)C(=O)N[C@H](CCCCN)C(=O)N[C@@H](C)C(N)=O [Compd 45] (Isovaleryl-ECH[Dip]CAI[dK][β3hF]K([Ahx-Palmitoyl])[dK]A-NH2; disulfide 2-5) . Reported DC50?
10 to 100 nM

----------
Measured DC50, listed per entry for reference.
Target: ferroportin (Homo sapiens, UniProt Q9NP59)
Sequence (Q9NP59 1-571): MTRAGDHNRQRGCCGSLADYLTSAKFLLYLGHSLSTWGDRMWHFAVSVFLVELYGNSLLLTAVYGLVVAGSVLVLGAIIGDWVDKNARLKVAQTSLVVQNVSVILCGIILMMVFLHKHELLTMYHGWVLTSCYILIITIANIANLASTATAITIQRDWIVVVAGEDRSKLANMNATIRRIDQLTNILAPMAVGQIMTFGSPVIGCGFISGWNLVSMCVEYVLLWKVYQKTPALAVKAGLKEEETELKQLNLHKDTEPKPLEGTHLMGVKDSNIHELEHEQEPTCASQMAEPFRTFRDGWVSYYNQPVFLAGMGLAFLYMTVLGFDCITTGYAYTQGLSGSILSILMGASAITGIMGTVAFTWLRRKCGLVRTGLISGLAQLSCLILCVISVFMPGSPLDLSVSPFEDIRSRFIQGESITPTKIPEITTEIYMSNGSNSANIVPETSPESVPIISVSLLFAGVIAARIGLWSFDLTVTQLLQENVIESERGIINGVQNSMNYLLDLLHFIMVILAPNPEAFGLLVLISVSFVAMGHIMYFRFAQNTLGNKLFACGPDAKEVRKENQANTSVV
Experiment: FPN activity assay: ferroportin-GFP internalization/degradation in HEK293 cells
Type: cell-based
Set-up: expressed in transfected cells
Details: ferroportin-GFP HEK293 cells, at least 18 hours; read-out: FPN IC50
Positions of bridges follow the written chain, without caps; N, C: chain ends. Non-standard residues stand in square brackets, D forms with d. Residues, ends and D or L forms follow the SMILES beside them. Groups on a side chain read outwards from the residue. *: point of attachment. Dip = N[C@H](C(=O)O)C(c1ccccc1)c1ccccc1; Palmitoyl = CCCCCCCCCCCCCCCC(=O)*; β3hF = N[C@H](CC(=O)O)Cc1ccccc1; Isovaleryl = CC(C)CC(=O)*; Ahx = NCCCCCC(=O)O

compound	DC50
CCCCCCCCCCCCCCCC(=O)NCCCCCC(=O)NCCCC[C@H](NC(=O)C[C@H](Cc1ccccc1)NC(=O)[C@@H]1CSSC[C@H](NC(=O)[C@@H]2CCCN2C(=O)[C@@H](NC(=O)[C@H](Cc2c[nH]cn2)NC(=O)[C@@H](NC(=O)[C@H](CCC(=O)O)NC(=O)CC(C)C)[C@@H](C)O)C(c2ccccc2)c2ccccc2)C(=O)N[C@@H]([C@@H](C)CC)C(=O)N1)C(=O)N[C@H](CCCCN)C(N)=O [Compd 8] (Isovaleryl-ETH[Dip]PCIC[β3hF]K([Ahx-Palmitoyl])[dK]-NH2; disulfide 6-8)	100 to 500 nM

Please turn your attention to the following entry.
Item under review: CCCCCCCCCCCCCCCC(=O)NCCCCCC(=O)NCCCC[C@H](NC(=O)C[C@H](Cc1ccccc1)NC(=O)[C@@H]1CSSC[C@H](NC(=O)[C@@H]2CCCN2C(=O)[C@@H](NC(=O)[C@H](Cc2c[nH]cn2)NC(=O)[C@@H](NC(=O)[C@H](CCC(=O)O)NC(=O)CC(C)C)[C@@H](C)O)C(c2ccccc2)c2ccccc2)C(=O)N[C@@H]([C@@H](C)CC)C(=O)N1)C(=O)N[C@H](CCCCN)C(N)=O [Compd 7] (Isovaleryl-ETH[Dip]PCIC[β3hF]K([Ahx-Palmitoyl])[dK]-NH2; disulfide 6-8) . Reported DC50?
10 to 100 nM

----------
biological target: ferroportin (Homo sapiens, UniProt Q9NP59); assay: T47D cell-based ferroportin internalization assay in presence of mouse serum albumin (MSA); parameters: a human breast carcinoma adherent cell line which endogenously expresses ferroportin; host or cells: T47D; settings: Table 6E; T47D internalization assay with MSA
Starred links: 1 amine or outer side, 2 acyl side, 3 side chain; linkers in the order of their positions; H or OH if unused. Positions of bridges follow the written chain, without caps; N, C: chain ends. Non-standard residues stand in square brackets, D forms with d. Residues, ends and D or L forms follow the SMILES beside them. Groups on a side chain read outwards from the residue. *: point of attachment. X2 = C[N+](C)(CCNC(=O)CCCCCCCCCCCCCCCCC(=O)O)CC(=O)NCC[N+](C)(C)CC(=O)*; X1 = C[N+](C)(CCNC(=O)CCCCCCCCCCCCCCCCC(=O)O)CC(=O)*; X5 = CCCCCCCCCCCCCCCC(=O)NCC[N+](C)(C)CC(=O)*; Dip = N[C@H](C(=O)O)C(c1ccccc1)c1ccccc1; Pro(3R-OH) = O=C(O)[C@H]1NCC[C@H]1O; Ethylenediamine = C(CN[*:2])N[*:1]; Palmitoyl = CCCCCCCCCCCCCCCC(=O)*; NMeT = CN[C@H](C(=O)O)[C@@H](C)O; NMeK = CN[C@@H](CCCCN)C(=O)O; Isovaleryl = CC(C)CC(=O)*; Ahx = NCCCCCC(=O)O
Measured IC50, listed per entry for reference.

Look over these answered cases.
compound	IC50
CC(C)CC(=O)N[C@@H](CCC(=O)O)C(=O)N1CC[C@@H](O)[C@H]1C(=O)N[C@@H](Cc1c[nH]cn1)C(=O)N[C@H](C(=O)N1CCC[C@H]1C(=O)N[C@H]1CSSC[C@@H](C(=O)N(C)[C@@H](CCCCNC(=O)CCCCCNC(=O)C[N+](C)(C)CCNC(=O)CCCCCCCCCCCCCCCCC(=O)O)C(=O)N[C@H](C(=O)N[C@H](CCCCN)C(N)=O)C(c2ccccc2)c2ccccc2)NC1=O)C(c1ccccc1)c1ccccc1 [compound 191] (Isovaleryl-E[Pro(3R-OH)]H[Dip]PCC[NMeK]([Ahx-X1])[Dip][dK]-NH2; disulfide 6-7)	10 to 100 nM
COC(=O)CC[C@H](NC(=O)CC(C)C)C(=O)N[C@H](C(=O)N[C@@H](Cc1c[nH]cn1)C(=O)N[C@H](C(=O)N1CCC[C@H]1C(=O)N[C@H]1CSSC[C@@H](C(=O)N[C@@H](CCCCNC(=O)C[N+](C)(C)CCNC(=O)C[N+](C)(C)CCNC(=O)CCCCCCCCCCCCCCCCC(=O)O)C(=O)N[C@H](C(=O)N[C@H](CCCCN)C(N)=O)C(c2ccccc2)c2ccccc2)NC1=O)C(c1ccccc1)c1ccccc1)[C@@H](C)O [compound 209] (Isovaleryl-E(OMe)TH[Dip]PCCK(X2)[Dip][dK]-NH2; disulfide 6-7)	10 to 100 nM
CCCCCCCCCCCCCCCC(=O)NCCCCCC(=O)NCCCC[C@H]1C(=O)N[C@@H](C(c2ccccc2)c2ccccc2)C(=O)NCCNC(=O)CC[C@H](NC(=O)CC(C)C)C(=O)N[C@@H]([C@@H](C)O)C(=O)N[C@@H](Cc2c[nH]cn2)C(=O)N[C@@H](C(c2ccccc2)c2ccccc2)C(=O)N2CCC[C@H]2C(=O)N[C@H]2CSSC[C@H](NC2=O)C(=O)N1C [compound 161] (Isovaleryl-ETH[Dip]PCC[NMeK]([Ahx-Palmitoyl])[Dip]; linker 1-C via Ethylenediamine; disulfide 6-7)	10 to 100 nM

Please turn your attention to the following entry.
Item under review: CCCCCCCCCCCCCCCC(=O)NCC[N+](C)(C)CC(=O)NCCCCCC(=O)NCCCC[C@@H](C(=O)N[C@H](C(=O)N[C@H](CCCCN)C(N)=O)C(c1ccccc1)c1ccccc1)N(C)C(=O)[C@@H]1CSSC[C@H](NC(=O)[C@@H]2CCCN2C(=O)[C@@H](NC(=O)[C@H](Cc2cnc[nH]2)NC(=O)[C@H]([C@@H](C)O)N(C)C(=O)[C@H](CCC(=O)O)NC(=O)CC(C)C)C(c2ccccc2)c2ccccc2)C(=O)N1 [compound 170] (Isovaleryl-E[NMeT]H[Dip]PCC[NMeK]([Ahx-X5])[Dip][dK]-NH2; disulfide 6-7) . Reported IC50?
1 to 10 nM
